target: Diguanylate cyclase (Collinsella aerofaciens)
Sequence (A4EB91 whole entry): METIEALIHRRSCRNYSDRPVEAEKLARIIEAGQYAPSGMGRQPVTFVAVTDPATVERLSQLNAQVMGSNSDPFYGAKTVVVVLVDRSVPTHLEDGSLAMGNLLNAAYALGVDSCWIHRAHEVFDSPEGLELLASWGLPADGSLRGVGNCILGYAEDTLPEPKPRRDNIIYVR
assay-notes: The drug is tested on Collinsella aerofaciens strain: ATCC25986 for biotransformation. The drug concentrations were measured before and after a 12-h incubation by liquid-chromatography-coupled mass spectrometry (LC–MS)
Assay type: ADME
Set-up: dose 2 uM
condition-description: 2 µM
measured-endpoint: Bacterial Biotransformation

Completed entries (count: 5):
molecule	reading
C[C@]12CCC(=O)C=C1[C@@H]1C[C@@H]1[C@H]1[C@@H]3[C@@H]4C[C@@H]4[C@@]4(CCC(=O)O4)[C@@]3(C)CC[C@@H]12 [DROSPIRENONE]	Compound NOT metabolized
C#C[C@]1(OC(C)=O)CC[C@H]2[C@@H]3CCC4=CC(=O)CC[C@@H]4[C@H]3CC[C@@]21C [NORETHINDRONE ACETATE]	Compound NOT metabolized
O=C(O)c1cc(/N=N/c2ccc(S(=O)(=O)Nc3ccccn3)cc2)ccc1O [SULFASALAZINE]	Compound NOT metabolized
C#C[C@]1(O)CC[C@H]2[C@@H]3CCC4=CC(=O)CC[C@@H]4[C@H]3CC[C@@]21CC [LEVONORGESTREL]	Compound NOT metabolized
CC(=O)Oc1ccc(C(c2ccc(OC(C)=O)cc2)c2ccccn2)cc1 [BISACODYL]	Compound NOT metabolized

Now for the molecule whose Bacterial Biotransformation we want.
**Query** Request the reported Bacterial Biotransformation associated with COc1ccnc(C[S+]([O-])c2nc3ccc(OC(F)F)cc3[nH]2)c1OC (configuration not stated) [PANTOPRAZOLE]
**Result** Compound NOT metabolized

* * *

condition-description: parabacteroides johnsonii, 12 h, 2 µM
Description: The drug is tested on Parabacteroides johnsonii strain: DSM18315 for biotransformation. The drug concentrations were measured before and after a 12-h incubation by liquid-chromatography-coupled mass spectrometry (LC–MS)
measured-endpoint: Bacterial Biotransformation

Please review the following examples before continuing.
compound	measured-endpoint	reading
O=P1(N(CCCl)CCCl)NCCCO1 (stereo not given) [CYCLOPHOSPHAMIDE ANHYDROUS]	Bacterial Biotransformation	Compound NOT metabolized
CCCCC(=O)N(Cc1ccc(-c2ccccc2-c2nnn[nH]2)cc1)[C@H](C(=O)O)C(C)C	Bacterial Biotransformation	Compound NOT metabolized
Nc1nc(NC2CC2)c2ncn([C@H]3C=C[C@@H](CO)C3)c2n1.Nc1nc(NC2CC2)c2ncn([C@H]3C=C[C@@H](CO)C3)c2n1.O=S(=O)(O)O [ABACAVIR SULFATE]	Bacterial Biotransformation	Compound NOT metabolized
CC(C)(C)NC[C@H](O)COc1nsnc1N1CCOCC1.O=C(O)/C=C\C(=O)O [TIMOLOL MALEATE]	Bacterial Biotransformation	Compound NOT metabolized
OC(c1cc(C(F)(F)F)nc2c(C(F)(F)F)cccc12)C1CCCCN1 (stereo not given) [MEFLOQUINE]	Bacterial Biotransformation	Compound NOT metabolized

**Query** Would you kindly share the measured Bacterial Biotransformation for N#Cc1ccc2[nH]cc(CCCCN3CCN(c4ccc5oc(C(N)=O)cc5c4)CC3)c2c1 [VILAZODONE] ?
**Result** Compound metabolized

**Query** Given the compound COc1cc2nc(N3CCN(C(=O)c4ccco4)CC3)nc(N)c2cc1OC [PRAZOSIN] , what is its reported Bacterial Biotransformation?
**Result** Compound NOT metabolized

**Query** Look up Bacterial Biotransformation for this compound: CC(C)(C#N)c1cc(Cn2cncn2)cc(C(C)(C)C#N)c1 [ANASTROZOLE]
**Result** Compound metabolized

**Query** Param item = CCCC1O[C@@H]2C[C@H]3[C@@H]4CCC5=CC(=O)C=C[C@]5(C)[C@H]4[C@@H](O)C[C@]3(C)[C@]2(C(=O)CO)O1 (stereo not given in full) [BUDESONIDE] ; retrieve measured Bacterial Biotransformation.
**Result** Compound metabolized
